- Species on record: Rattus norvegicus
- Assay Explanation: Open TG-GATES - Regimen: Daily Repeat
- Format: toxicity, organism-based, Sprague-Dawley
- Set-up: regimen Daily Repeat, gender Male, age 6 weeks
- Reported Conditions: in vivo, po, 1000 mg/kg, […], tissue Plasma, route gavage, dose level High, time 28 day
Property Label: gamma-GTP (IU/L)
Answers are plain numbers, in IU/L.

CNC(=C[N+](=O)[O-])NCCSCc1ccc(CN(C)C)o1 [RANITIDINE]; 0.8

List reported gamma-GTP for each of these compounds:
1. CCOc1ccc(NC(C)=O)cc1 [PHENACETIN]
2. O=C(OC[C@H]1O[C@@H](OC(=O)c2cc(O)c(O)c(OC(=O)c3cc(O)c(O)c(O)c3)c2)[C@H](OC(=O)c2cc(O)c(O)c(OC(=O)c3cc(O)c(O)c(O)c3)c2)[C@@H](OC(=O)c2cc(O)c(O)c(OC(=O)c3cc(O)c(O)c(O)c3)c2)[C@@H]1OC(=O)c1cc(O)c(O)c(OC(=O)c2cc(O)c(O)c(O)c2)c1)c1cc(O)c(O)c(OC(=O)c2cc(O)c(O)c(O)c2)c1 [TANNIC ACID]

1: 1.2; 2: 1

Quick request: gamma-GTP for each listed item, please.
1. CN/C(=N/CCSCc1nc[nH]c1C)NC#N [CIMETIDINE]
2. Cc1nnc2n1-c1ccc(Cl)cc1C(c1ccccc1Cl)=NC2 [TRIAZOLAM]
3. COC(=O)C1=C(C)NC(C)=C(C(=O)OC)C1c1ccccc1[N+](=O)[O-] [NIFEDIPINE]

1.4
1.2
1

----------
- Organism: Rattus norvegicus
- Assay Explanation: Open TG-GATES - Regimen: Daily Repeat
- Assay type: toxicity, organism-based, Sprague-Dawley
- Design: regimen Daily Repeat, gender Male, age 6 weeks
- Reported Conditions: in vivo, po, 0 mg/kg, […], tissue Blood, route gavage, dose level Control, time 14 day
Property Label: MCV (fL)
Answers are plain numbers, in fL.

See these solved cases before continuing.
CN1C(=O)CCS(=O)(=O)C1c1ccc(Cl)cc1 (stereo unspecified); 58.8
NC1=NC(=O)C(c2ccccc2)O1 (stereo unspecified); 60.8
CCOc1ccc(NC(C)=O)cc1; 58.6
CN/C(=N/CCSCc1nc[nH]c1C)NC#N; 60.7
COC(=O)C1=C(C)NC(C)=C(C(=O)OC)C1c1ccccc1[N+](=O)[O-]; 61.3

GET /values?readout=MCV&item= "Brc1ccccc1"
60

----------
- Organism: Rattus norvegicus
- Assay Explanation: Open TG-GATES - Regimen: Single
- Format: toxicity, organism-based, Sprague-Dawley
- Design: regimen Single, gender Male, age 6 weeks
- Reported Conditions: in vivo, po, 1000 mg/kg, 3 h, tissue Kidney, route gavage, dose level High
I'd appreciate it if you could supply KIDNEY_TOTAL values for the items below.
One number for each entry, in g.

CNC(=C[N+](=O)[O-])NCCSCc1ccc(CN(C)C)o1 [RANITIDINE]; 2.1
O=C(OC[C@H]1O[C@@H](OC(=O)c2cc(O)c(O)c(OC(=O)c3cc(O)c(O)c(O)c3)c2)[C@H](OC(=O)c2cc(O)c(O)c(OC(=O)c3cc(O)c(O)c(O)c3)c2)[C@@H](OC(=O)c2cc(O)c(O)c(OC(=O)c3cc(O)c(O)c(O)c3)c2)[C@@H]1OC(=O)c1cc(O)c(O)c(OC(=O)c2cc(O)c(O)c(O)c2)c1)c1cc(O)c(O)c(OC(=O)c2cc(O)c(O)c(O)c2)c1 [TANNIC ACID]; 1.8
Cc1nnc2n1-c1ccc(Cl)cc1C(c1ccccc1Cl)=NC2 [TRIAZOLAM]; 1.8
CN/C(=N/CCSCc1nc[nH]c1C)NC#N [CIMETIDINE]; 2

// KIDNEY_TOTAL lookup, key: COC(=O)C1=C(C)NC(C)=C(C(=O)OC)C1c1ccccc1[N+](=O)[O-] [NIFEDIPINE]
1.9

----------
- Species: Rattus norvegicus
- Assay Explanation: Open TG-GATES - Regimen: Daily Repeat
- Assay type: toxicity, organism-based, Sprague-Dawley
- Set-up: regimen Daily Repeat, gender Male, age 6 weeks
- Reported Conditions: in vivo, po, 300 mg/kg, […], tissue Blood, route gavage, dose level Middle, time 7 day
Give PT for every item shown.
Answers are plain numbers, in s.

In the examples that follow, each entry is paired with its recorded PT.
O=C(OC[C@H]1O[C@@H](OC(=O)c2cc(O)c(O)c(OC(=O)c3cc(O)c(O)c(O)c3)c2)[C@H](OC(=O)c2cc(O)c(O)c(OC(=O)c3cc(O)c(O)c(O)c3)c2)[C@@H](OC(=O)c2cc(O)c(O)c(OC(=O)c3cc(O)c(O)c(O)c3)c2)[C@@H]1OC(=O)c1cc(O)c(O)c(OC(=O)c2cc(O)c(O)c(O)c2)c1)c1cc(O)c(O)c(OC(=O)c2cc(O)c(O)c(O)c2)c1; 10.9
COC(=O)C1=C(C)NC(C)=C(C(=O)OC)C1c1ccccc1[N+](=O)[O-]; 13.6
CN/C(=N/CCSCc1nc[nH]c1C)NC#N; 12.6
CCOc1ccc(NC(C)=O)cc1; 13.3
CNC(=C[N+](=O)[O-])NCCSCc1ccc(CN(C)C)o1; 12.4

Dear colleague, I am looking for the recorded PT of the following molecule: "Cc1nnc2n1-c1ccc(Cl)cc1C(c1ccccc1Cl)=NC2"
12.8

----------
- Species: Rattus norvegicus
- Assay Explanation: Open TG-GATES - Regimen: Single
- Assay type: toxicity, organism-based, Sprague-Dawley
- Parameters: regimen Single, gender Male, age 6 weeks
- Reported Conditions: in vivo, po, 0 mg/kg, 6 h, tissue Plasma, route gavage, dose level Control
Property Label: A/G
Numbers only.

Give one value of A/G per listed compound.
1. Nc1c2c(nc3ccccc13)CCCC2
2. CN/C(=N/CCSCc1nc[nH]c1C)NC#N
3. O=C(OC[C@H]1O[C@@H](OC(=O)c2cc(O)c(O)c(OC(=O)c3cc(O)c(O)c(O)c3)c2)[C@H](OC(=O)c2cc(O)c(O)c(OC(=O)c3cc(O)c(O)c(O)c3)c2)[C@@H](OC(=O)c2cc(O)c(O)c(OC(=O)c3cc(O)c(O)c(O)c3)c2)[C@@H]1OC(=O)c1cc(O)c(O)c(OC(=O)c2cc(O)c(O)c(O)c2)c1)c1cc(O)c(O)c(OC(=O)c2cc(O)c(O)c(O)c2)c1
4. Brc1ccccc1

1. 1.2
2. 1.5
3. 2
4. 0.9

// batch mode: one A/G value per listed entry
1. Cc1nnc2n1-c1ccc(Cl)cc1C(c1ccccc1Cl)=NC2
2. CC(C)NNC(=O)c1ccncc1
3. CN1C(=O)CCS(=O)(=O)C1c1ccc(Cl)cc1 (stereo unspecified)
4. CN(C)CCC(c1ccc(Cl)cc1)c1ccccn1 (stereo unspecified)
5. NC1=NC(=O)C(c2ccccc2)O1 (stereo unspecified)

0.9
1.3
0.9
0.9
1

# per-item lookup of A/G; items listed below
1. CNC(=C[N+](=O)[O-])NCCSCc1ccc(CN(C)C)o1
2. CCCc1cc(=O)[nH]c(=S)[nH]1

1: 1.7; 2: 2.2

----------
- Organism: Rattus norvegicus
- Assay Explanation: Open TG-GATES - Regimen: Daily Repeat
- Format: toxicity, organism-based, Sprague-Dawley
- Set-up: regimen Daily Repeat, gender Male, age 6 weeks
- Reported Conditions: in vivo, po, 0 mg/kg, […], tissue Plasma, route gavage, dose level Control, time 14 day
In plain terms, low K, meaning strictly below 4 meq/L, gives 1, and everything else gives 0.

Example results:
CCOc1ccc(NC(C)=O)cc1 [PHENACETIN]; 0
NC1=NC(=O)C(c2ccccc2)O1 (stereo not drawn) [PEMOLINE]; 1
CN(C)CCC(c1ccc(Cl)cc1)c1ccccn1 (stereo not drawn) [CHLORPHENIRAMINE]; 0
O=C(OC[C@H]1O[C@@H](OC(=O)c2cc(O)c(O)c(OC(=O)c3cc(O)c(O)c(O)c3)c2)[C@H](OC(=O)c2cc(O)c(O)c(OC(=O)c3cc(O)c(O)c(O)c3)c2)[C@@H](OC(=O)c2cc(O)c(O)c(OC(=O)c3cc(O)c(O)c(O)c3)c2)[C@@H]1OC(=O)c1cc(O)c(O)c(OC(=O)c2cc(O)c(O)c(O)c2)c1)c1cc(O)c(O)c(OC(=O)c2cc(O)c(O)c(O)c2)c1 [TANNIC ACID]; 0

Next:
Input CCCc1cc(=O)[nH]c(=S)[nH]1 [PROPYLTHIOURACIL] ; condition: K strictly below 4 meq/L. Does it hold?
0

----------
- Species on record: Rattus norvegicus
- Assay Explanation: Open TG-GATES - Regimen: Daily Repeat
- Type: toxicity, organism-based, Sprague-Dawley
- Set-up: regimen Daily Repeat, gender Male, age 6 weeks
- Reported Conditions: in vivo, po, 1000 mg/kg, […], tissue Plasma, route gavage, dose level High, time 14 day
Kindly state DBIL for each of the entries shown.
Numbers only, in mg/dL.

Consider the worked cases shown below.
CCOc1ccc(NC(C)=O)cc1; 0.036
CNC(=C[N+](=O)[O-])NCCSCc1ccc(CN(C)C)o1; 0.08
COC(=O)C1=C(C)NC(C)=C(C(=O)OC)C1c1ccccc1[N+](=O)[O-]; 0.012

I have 2 molecules here; please give me DBIL for each one.
1. CN/C(=N/CCSCc1nc[nH]c1C)NC#N
2. O=C(OC[C@H]1O[C@@H](OC(=O)c2cc(O)c(O)c(OC(=O)c3cc(O)c(O)c(O)c3)c2)[C@H](OC(=O)c2cc(O)c(O)c(OC(=O)c3cc(O)c(O)c(O)c3)c2)[C@@H](OC(=O)c2cc(O)c(O)c(OC(=O)c3cc(O)c(O)c(O)c3)c2)[C@@H]1OC(=O)c1cc(O)c(O)c(OC(=O)c2cc(O)c(O)c(O)c2)c1)c1cc(O)c(O)c(OC(=O)c2cc(O)c(O)c(O)c2)c1

[0.1, 0.024]

Please give the measured DBIL for this molecule: "Cc1nnc2n1-c1ccc(Cl)cc1C(c1ccccc1Cl)=NC2"
0.01
